# System: HOP-92
# Experiment description: In vitro cytotoxicity, NCI screen: HOP-92 (Non-small cell lung)
# Format: cell-based
# Experimental setup: Homo sapiens; HOP-92, Non-small cell lung panel, NCI protocol; read-out: GI50 values (μM conc.)

{"columns": ["Compound", "GI50 [µM]"],
 "data": [
  ["COc1ccc(/C=C\\c2cc(OC)c(OC)c(OC)c2)cc1OCC(=O)Nc1nc2ccc(F)cc2s1", 5.73],
  ["COc1ccc(C2CC(c3cc(OC)c(OC)c(OC)c3)=NN2C(C)=O)cc1OCC(=O)Nc1nc2ccc(C(F)(F)F)cc2s1 (stereo not shown) [Compound 10i]", 1.7],
  ["COc1ccc(/C=C/C(=O)c2cc(OC)c(OC)c(OC)c2)cc1OCC(=O)Nc1nc2ccc(OC(F)(F)F)cc2s1", 2.14],
  ["COc1ccc(/C=C\\c2cc(OC)c(OC)c(OC)c2)cc1OCC(=O)Nc1nc2ccccc2s1", 0.039],
  ["COc1ccc(/C=C\\c2cc(OC)c(OC)c(OC)c2)cc1OCC(=O)Nc1nc2ccc(OC(F)(F)F)cc2s1", 2.74],
  ["COc1ccc(/C=C\\c2cc(OC)c(OC)c(OC)c2)cc1OCC(=O)Nc1nc2ccc(C(F)(F)F)cc2s1", 2.88],
  ["COc1ccc2nc(NC(=O)COc3cc(/C=C\\c4cc(OC)c(OC)c(OC)c4)ccc3OC)sc2c1", 6.28]
]}

###

# Tested on: HT29
# Experiment description: In vitro cytotoxicity, NCI screen: HT29 (Colon)
# Format: cell-based
# Experimental setup: Homo sapiens, HT-29; HT29, Colon panel, NCI protocol; read-out: GI50 values (μM conc.)
# Description: The in vitro anticancer activity studies for these amidobenzothiazoles were carried out at the National Cancer Institute, Maryland, USA. The amidobenzothiazoles have been tested against sixty human tumor cell lines derived from nine cancer types (leukemia cancer cell line, non-small cell lung cancer cell line, colon cancer cell line, CNS cancer cell line, melanoma cancer cell line, ovarian cancer cell line, renal cancer cell line, prostate cancer cell line and breast cancer cell lines). […]
Assay endpoint: GI50 (µM)

{"columns": ["Smi", "Rel", "Reported result"],
 "data": [
  ["COc1ccc(/C=C\\c2cc(OC)c(OC)c(OC)c2)cc1OCC(=O)Nc1nc2ccc(OC(F)(F)F)cc2s1", ">", 100],
  ["COc1ccc(/C=C\\c2cc(OC)c(OC)c(OC)c2)cc1OCC(=O)Nc1nc2ccc(C(F)(F)F)cc2s1", "=", 14.9],
  ["COc1ccc(/C=C/C(=O)c2cc(OC)c(OC)c(OC)c2)cc1OCC(=O)Nc1nc2ccc(OC(F)(F)F)cc2s1", "=", 3.66],
  ["COc1ccc(/C=C\\c2cc(OC)c(OC)c(OC)c2)cc1OCC(=O)Nc1nc2ccccc2s1", "=", 3.16],
  ["COc1ccc2nc(NC(=O)COc3cc(/C=C\\c4cc(OC)c(OC)c(OC)c4)ccc3OC)sc2c1", "=", 3.34],
  ["COc1ccc(/C=C\\c2cc(OC)c(OC)c(OC)c2)cc1OCC(=O)Nc1nc2ccc(F)cc2s1", "=", 9.63]
]}

###

# System: BT-549
# Experiment description: In vitro cytotoxicity, NCI screen: BT-549 (Breast)
# Type: cell-based
# Experimental setup: Homo sapiens, read-out: GI50 values (μM conc.)

{"columns": ["Molecule", "Unit symbol", "GI50"],
 "data": [
  ["COc1ccc(/C=C\\c2cc(OC)c(OC)c(OC)c2)cc1OCC(=O)Nc1nc2ccc(C(F)(F)F)cc2s1", "µM", 5.23],
  ["COc1ccc(/C=C\\c2cc(OC)c(OC)c(OC)c2)cc1OCC(=O)Nc1nc2ccc(F)cc2s1", "µM", 16.7],
  ["COc1ccc(C2CC(c3cc(OC)c(OC)c(OC)c3)=NN2C(C)=O)cc1OCC(=O)Nc1nc2ccc(C(F)(F)F)cc2s1 (stereo not shown) [Compound 10i]", "µM", 3.55],
  ["COc1ccc(/C=C/C(=O)c2cc(OC)c(OC)c(OC)c2)cc1OCC(=O)Nc1nc2ccc(OC(F)(F)F)cc2s1", "µM", 2.71],
  ["COc1ccc2nc(NC(=O)COc3cc(/C=C\\c4cc(OC)c(OC)c(OC)c4)ccc3OC)sc2c1", "µM", 21.2],
  ["COc1ccc(/C=C\\c2cc(OC)c(OC)c(OC)c2)cc1OCC(=O)Nc1nc2ccc(OC(F)(F)F)cc2s1", "µM", 10.5],
  ["COc1ccc(/C=C\\c2cc(OC)c(OC)c(OC)c2)cc1OCC(=O)Nc1nc2ccccc2s1", "µM", 0.41]
]}
